Hello, the source for this data is patent US12122778B2, in case you need it.

TARGET_SYSTEM: UniProt:P30613
Sequence (P30613 whole entry): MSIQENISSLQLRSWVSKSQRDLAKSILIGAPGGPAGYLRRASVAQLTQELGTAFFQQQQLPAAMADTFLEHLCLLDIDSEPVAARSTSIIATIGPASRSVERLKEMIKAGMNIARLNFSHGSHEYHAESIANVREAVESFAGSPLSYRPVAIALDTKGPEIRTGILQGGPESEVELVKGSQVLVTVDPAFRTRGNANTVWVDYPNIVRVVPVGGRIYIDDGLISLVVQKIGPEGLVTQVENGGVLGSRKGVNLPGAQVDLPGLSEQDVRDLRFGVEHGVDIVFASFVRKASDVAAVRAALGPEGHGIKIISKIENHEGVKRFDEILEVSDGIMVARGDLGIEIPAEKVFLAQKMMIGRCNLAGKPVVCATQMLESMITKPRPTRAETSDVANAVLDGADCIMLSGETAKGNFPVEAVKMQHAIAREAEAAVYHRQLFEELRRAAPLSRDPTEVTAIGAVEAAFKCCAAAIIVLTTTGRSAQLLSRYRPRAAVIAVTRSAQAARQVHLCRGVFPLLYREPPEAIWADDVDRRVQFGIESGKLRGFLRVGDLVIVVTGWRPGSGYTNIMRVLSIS
EXPERIMENT: Luminescence Biochemical Assay (Kinase Glo Plus), wild type PKR
RUN_CONDITIONS: without FBP, 1.54 μM compound, read-out: AC50 LUM KGP woFBP % Fold@1.54 μM mean
Below is a list of entries, each paired with its recorded activation at 1.54 µM value.

Known results for compounds:
SMILES | activation at 1.54 µM
NCC1(C(=O)N2CC3=C(C2)CN(S(=O)(=O)c2ccc4occc4c2)C3)CC1 | 75 to 250%
O=C(NCc1cccc(F)c1)N1CC2=C(C1)CN(S(=O)(=O)c1ccc(OC(F)F)cc1)C2 | 250 to 50000%
Cc1ccc(CC(=O)N2CC3=C(C2)CN(S(=O)(=O)c2ccccn2)C3)cn1 | 75 to 250%
O=C(N1CC2=C(C1)CN(S(=O)(=O)c1ccc(OC(F)F)cc1)C2)C(F)(F)c1ccccc1 | 250 to 50000%
COc1ccc(CNC(=O)N2CC3=C(C2)CN(S(=O)(=O)c2cccnc2)C3)cc1 | 75 to 250%
CS(=O)(=O)NCC(=O)N1CC2=C(C1)CN(S(=O)(=O)c1ccc3occc3c1)C2 | 75 to 250%
Cc1nn(C)c(Cl)c1S(=O)(=O)N1CC2=C(CN(C(=O)[C@H](O)c3ccccc3)C2)C1 | 75 to 250%

Attention now shifts to the item below.
Assign activation at 1.54 µM to the following record: "CC[C@H](O)C(=O)N1CC2=C(C1)CN(S(=O)(=O)c1ccc3c(c1)N(C)CCO3)C2"
75 to 250%
